Target System: ACE (Homo sapiens)
Sequence (P12821 30-1306, species assumed): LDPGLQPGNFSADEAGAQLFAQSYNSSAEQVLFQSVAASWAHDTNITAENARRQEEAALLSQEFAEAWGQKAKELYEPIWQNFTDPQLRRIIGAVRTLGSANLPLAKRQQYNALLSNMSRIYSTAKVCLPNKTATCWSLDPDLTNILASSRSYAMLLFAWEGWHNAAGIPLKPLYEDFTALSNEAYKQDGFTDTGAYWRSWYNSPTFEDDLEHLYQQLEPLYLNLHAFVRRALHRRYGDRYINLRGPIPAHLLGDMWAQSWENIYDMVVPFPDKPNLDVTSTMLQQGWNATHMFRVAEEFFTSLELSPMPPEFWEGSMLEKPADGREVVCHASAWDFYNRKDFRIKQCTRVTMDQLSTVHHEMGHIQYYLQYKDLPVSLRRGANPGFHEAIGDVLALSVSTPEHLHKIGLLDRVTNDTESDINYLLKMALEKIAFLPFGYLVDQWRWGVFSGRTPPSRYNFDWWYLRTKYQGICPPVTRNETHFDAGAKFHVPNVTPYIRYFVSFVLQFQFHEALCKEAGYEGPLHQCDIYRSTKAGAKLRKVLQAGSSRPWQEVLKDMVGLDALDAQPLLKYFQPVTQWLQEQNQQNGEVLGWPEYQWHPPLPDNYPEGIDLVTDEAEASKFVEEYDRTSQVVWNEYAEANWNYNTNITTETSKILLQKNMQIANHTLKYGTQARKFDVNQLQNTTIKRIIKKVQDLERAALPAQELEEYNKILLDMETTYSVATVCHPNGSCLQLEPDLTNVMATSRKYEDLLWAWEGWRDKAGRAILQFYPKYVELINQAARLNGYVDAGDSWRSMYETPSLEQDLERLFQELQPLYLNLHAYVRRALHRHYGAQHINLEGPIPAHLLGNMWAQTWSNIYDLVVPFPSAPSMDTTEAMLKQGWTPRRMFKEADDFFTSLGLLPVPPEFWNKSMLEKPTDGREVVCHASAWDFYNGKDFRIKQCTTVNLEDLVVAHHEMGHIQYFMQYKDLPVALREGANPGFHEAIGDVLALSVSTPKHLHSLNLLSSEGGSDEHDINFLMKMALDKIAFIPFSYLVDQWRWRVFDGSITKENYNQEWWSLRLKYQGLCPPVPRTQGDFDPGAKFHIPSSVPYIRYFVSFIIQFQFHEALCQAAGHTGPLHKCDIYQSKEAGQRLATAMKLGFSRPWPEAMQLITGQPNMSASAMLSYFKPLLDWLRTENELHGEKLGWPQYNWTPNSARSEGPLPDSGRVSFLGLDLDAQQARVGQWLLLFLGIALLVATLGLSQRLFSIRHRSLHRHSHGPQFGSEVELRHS
Test Details: ACE inhibition, spectrophotometric enzyme assay
Assay type: biochemical
Conditions Used: spectrophotometric substrate of Holmquist et al.; buffer system of Ryan
pKi: −log10 of the molar value.
Measured Endpoint: pKi

Exercise: Tell me its pKi given O=C(O)CC1(C(=O)N[C@H]2Cc3ccccc3[C@H]3CCC[C@@H](C(=O)O)N3C2=O)Cc2ccccc2C1 (relative stereo) as the entry.
Key: > 6.98
